# TGT: SA AgrC-IV (Staphylococcus aureus, UniProt Q309Z2)
# Sequence (Q309Z2 entry or part of it): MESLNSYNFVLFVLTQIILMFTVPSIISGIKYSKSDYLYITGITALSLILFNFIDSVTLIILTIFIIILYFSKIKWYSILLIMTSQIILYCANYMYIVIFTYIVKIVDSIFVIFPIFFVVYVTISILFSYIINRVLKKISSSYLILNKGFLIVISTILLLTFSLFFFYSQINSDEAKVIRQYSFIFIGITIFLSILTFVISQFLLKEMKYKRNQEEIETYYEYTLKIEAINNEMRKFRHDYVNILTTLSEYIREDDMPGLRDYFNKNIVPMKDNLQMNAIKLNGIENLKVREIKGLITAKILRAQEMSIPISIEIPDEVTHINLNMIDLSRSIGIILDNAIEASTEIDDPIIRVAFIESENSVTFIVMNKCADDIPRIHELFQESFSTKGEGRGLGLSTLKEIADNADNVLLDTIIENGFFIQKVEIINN
# MEASUREMENT_DESCRIPTION: β-Lactamase assay, reporter strain RN10829 (P2-agrA:P3-blaZ) with pagrC-IV
# Format: cell-based
Positions of bridges follow the written chain, without caps; N, C: chain ends. Residues, ends and D or L forms follow the SMILES beside them.
READOUT_LABEL: IC50 (nM)
Write down the numeric answer in nM and omit the unit.

# query: IC50 of entry NCCCC[C@H](N)C(=O)N[C@@H](Cc1ccc(O)cc1)C(=O)N[C@@H](CC(N)=O)C(=O)N1CCC[C@H]1C(=O)N[C@H]1CSC(=O)[C@H](Cc2ccccc2)NC(=O)[C@H](Cc2ccc(O)cc2)NC(=O)CNC(=O)[C@H](Cc2c[nH]c3ccccc23)NC1=O [compound 34, S. simulans AIP-III] (H-KYNPCWGYF; thioester 5-C)
351

---

Please go through the items and note down their IC50.
# TGT: UniProtKB Q8VSX2
# Sequence (Q8VSX2 entry or part of it): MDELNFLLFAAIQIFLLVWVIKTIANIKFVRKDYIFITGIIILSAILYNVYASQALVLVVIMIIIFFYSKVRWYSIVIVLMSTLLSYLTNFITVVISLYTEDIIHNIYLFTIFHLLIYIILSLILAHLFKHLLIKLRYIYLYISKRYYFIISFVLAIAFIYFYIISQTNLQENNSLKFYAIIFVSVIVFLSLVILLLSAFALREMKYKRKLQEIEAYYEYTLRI
# MEASUREMENT_DESCRIPTION: cell-based
Positions of bridges follow the written chain, without caps; N, C: chain ends. Residues, ends and D or L forms follow the SMILES beside them.

# query: IC50 of entry CC[C@H](C)[C@H](NC(=O)[C@@H](N)CC(=O)O)C(=O)N[C@H]1CSC(=O)[C@H](Cc2ccccc2)NC(=O)[C@H](Cc2ccc(O)cc2)NC(=O)[C@H](C)NC(=O)[C@H](CC(N)=O)NC1=O [compound 8, S. lugdunensis AIP-I] (H-DICNAYF; thioester 3-C; N-terminus assumed)
66.8 nM

# query: IC50 of entry CC[C@H](C)[C@@H]1NC(=O)[C@H](Cc2ccccc2)NC(=O)[C@H](CC(=O)O)NC(=O)[C@@H](NC(=O)[C@@H](NC(=O)[C@H](CO)NC(=O)[C@@H](N)Cc2ccc(O)cc2)[C@@H](C)O)CSC(=O)[C@H](CCSC)NC1=O [compound 1, S. aureus AIP-I] (H-YSTCDFIM; thioester 4-C)
> 1000 nM

# query: IC50 of entry NCCCC[C@H](N)C(=O)N[C@@H](Cc1ccc(O)cc1)C(=O)N[C@@H](Cc1ccc(O)cc1)C(=O)N1CCC[C@H]1C(=O)N[C@H]1CSC(=O)[C@H](Cc2ccccc2)NC(=O)[C@H](Cc2ccc(O)cc2)NC(=O)CNC(=O)[C@H](Cc2c[nH]c3ccccc23)NC1=O [compound 33, S. simulans AIP-II] (H-KYYPCWGYF; thioester 5-C)
0.6 nM

# query: IC50 of entry CC(C)[C@H](NC(=O)[C@H](CO)NC(=O)[C@@H](N)CC(=O)O)C(=O)N[C@H]1CSC(=O)[C@H](Cc2ccccc2)NC(=O)[C@H](Cc2ccc(O)cc2)NC(=O)[C@H](CO)NC(=O)[C@H](C)NC1=O [compound 5, S. epidermidis AIP-I] (H-DSVCASYF; thioester 4-C)
8.6 nM

---

# TGT: SA AgrC-III (Staphylococcus aureus, UniProt O33590)
# Sequence (O33590 entry or part of it): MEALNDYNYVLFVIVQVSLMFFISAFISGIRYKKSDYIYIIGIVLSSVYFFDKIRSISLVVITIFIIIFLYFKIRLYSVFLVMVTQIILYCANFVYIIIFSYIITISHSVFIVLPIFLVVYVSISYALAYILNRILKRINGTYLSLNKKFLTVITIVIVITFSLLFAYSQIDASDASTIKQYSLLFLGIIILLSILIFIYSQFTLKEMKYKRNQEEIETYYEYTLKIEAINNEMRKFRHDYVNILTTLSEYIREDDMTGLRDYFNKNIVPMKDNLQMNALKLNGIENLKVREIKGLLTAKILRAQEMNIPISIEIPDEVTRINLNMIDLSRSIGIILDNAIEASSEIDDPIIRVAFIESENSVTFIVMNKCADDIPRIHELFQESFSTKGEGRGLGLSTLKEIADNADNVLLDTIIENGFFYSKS
# MEASUREMENT_DESCRIPTION: β-Lactamase assay, reporter strain RN10829 (P2-agrA:P3-blaZ) with pagrC-III
# Type: cell-based
Positions of bridges follow the written chain, without caps; N, C: chain ends. Residues, ends and D or L forms follow the SMILES beside them.
READOUT_LABEL: IC50 (nM)
Write down the numeric answer in nM and omit the unit.

Recorded IC50 for NCCCC[C@H](N)C(=O)N[C@@H](Cc1ccc(O)cc1)C(=O)N[C@@H](CC(N)=O)C(=O)N1CCC[C@H]1C(=O)N[C@H]1CSC(=O)[C@H](Cc2ccccc2)NC(=O)[C@H](Cc2ccc(O)cc2)NC(=O)CNC(=O)[C@H](Cc2c[nH]c3ccccc23)NC1=O [compound 34, S. simulans AIP-III] (H-KYNPCWGYF; thioester 5-C) with SA AgrC-III (Staphylococcus aureus, UniProt O33590), please?
103

Recorded IC50 for NCCCC[C@H](N)C(=O)N[C@@H](Cc1ccc(O)cc1)C(=O)N[C@@H](Cc1ccc(O)cc1)C(=O)N1CCC[C@H]1C(=O)N[C@H]1CSC(=O)[C@H](Cc2ccccc2)NC(=O)[C@H](Cc2ccc(O)cc2)NC(=O)CNC(=O)[C@H](Cc2c[nH]c3ccccc23)NC1=O [compound 33, S. simulans AIP-II] (H-KYYPCWGYF; thioester 5-C) with SA AgrC-III (Staphylococcus aureus, UniProt O33590), please?
198

---

# TGT: SA AgrC-I (Staphylococcus aureus, UniProt O07911)
# Sequence (O07911 entry or part of it): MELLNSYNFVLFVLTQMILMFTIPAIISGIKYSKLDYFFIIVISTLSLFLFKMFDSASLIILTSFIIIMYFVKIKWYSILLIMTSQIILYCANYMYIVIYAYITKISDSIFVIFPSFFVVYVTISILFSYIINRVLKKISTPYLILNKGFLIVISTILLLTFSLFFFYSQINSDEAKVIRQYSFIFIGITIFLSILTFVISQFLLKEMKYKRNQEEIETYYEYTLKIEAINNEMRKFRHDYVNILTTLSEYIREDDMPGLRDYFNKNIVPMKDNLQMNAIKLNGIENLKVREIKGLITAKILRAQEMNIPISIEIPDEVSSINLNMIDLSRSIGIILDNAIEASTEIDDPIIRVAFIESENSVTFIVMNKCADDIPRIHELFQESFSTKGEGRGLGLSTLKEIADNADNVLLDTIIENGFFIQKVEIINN
# MEASUREMENT_DESCRIPTION: β-Lactamase assay, reporter strain RN10829 (P2-agrA:P3-blaZ) with pagrC-I
# Format: cell-based
Positions of bridges follow the written chain, without caps; N, C: chain ends. Residues, ends and D or L forms follow the SMILES beside them.
Please go through the items and note down their IC50.
Write down the numeric answer in µM and omit the unit.

Recorded IC50 for CC[C@H](C)[C@H](NC(=O)[C@@H](N)CCCNC(=N)N)C(=O)N1CCC[C@H]1C(=O)N[C@H](C(=O)N[C@H]1COC(=O)[C@H](Cc2ccccc2)NC(=O)[C@H](Cc2ccccc2)NC(=O)CNC(=O)[C@H]([C@@H](C)O)NC1=O)[C@@H](C)O [compound 31, S. intermedius AIP-I] (H-RIPTSTGFF; ester 5-C) with SA AgrC-I (Staphylococcus aureus, UniProt O07911), please?
0.087

Recorded IC50 for C[C@H](N)C(=O)N[C@@H](CC(N)=O)C(=O)N1CCC[C@H]1C(=O)N[C@H]1CSC(=O)[C@H](Cc2ccccc2)NC(=O)[C@H](Cc2ccc(O)cc2)NC(=O)CNC(=O)[C@H](C)NC1=O [compound 21, S. pasteuri AIP-I] (H-ANPCAGYF; thioester 4-C) with SA AgrC-I (Staphylococcus aureus, UniProt O07911), please?
0.155

Recorded IC50 for CC(C)C[C@H](NC(=O)[C@H](C)NC(=O)CNC(=O)[C@H](C)NC(=O)[C@@H](NC(=O)[C@H](C)N)[C@@H](C)O)C(=O)N1CCC[C@H]1C(=O)N[C@H]1CSC(=O)[C@H](Cc2ccccc2)NC(=O)[C@H](Cc2ccccc2)NC(=O)CNC(=O)CNC1=O [compound 23, S. succinus AIP-I] (H-ATAGALPCGGFF; thioester 8-C) with SA AgrC-I (Staphylococcus aureus, UniProt O07911), please?
0.117
